biological target: MMP-14 (Homo sapiens, UniProt P50281)
PROPERTY NAME: IC50 (µM)
Numbers only; they are read as µM.

State IC50 on MMP-14 (Homo sapiens, UniProt P50281). Entry: NCCS
91
